# protocol-summary: Inhibition of microcystin analogues to catalytic subunits of Serine/threonine protein phosphatase 2A (PP2Ac)
readout-label: IC50
The reply should read as a number followed by its unit.

# input compound: C=C1C(=O)N[C@H](CN)C(=O)N[C@@H](CC(C)C)C(=O)C[C@@H](C(=O)O)[C@H](C)C(=O)N[C@@H](C)C(=O)N[C@@H](/C=C/C(C)=C/[C@H](C)[C@H](Cc2ccccc2)OC)[C@H](C)C(=O)N[C@@H](C(=O)O)CCC(=O)N1C ; wanted: its IC50 9 nM

Record request: IC50 value, item CO[C@@H](Cc1ccccc1)[C@@H](C)/C=C(C)/C=C/[C@@H]1NC(=O)[C@H](C)NC(=O)[C@@H](C)[C@H](C(=O)O)CC(=O)[C@H](CC(C)C)NC(=O)[C@@H](C)NC(=O)CN(C)C(=O)CC[C@H](C(=O)O)NC(=O)[C@H]1C 1.5 nM

Request the reported IC50 associated with CO[C@@H](Cc1ccccc1)[C@@H](C)/C=C(C)/C=C/[C@@H]1NC(=O)[C@H](C)NC(=O)[C@@H](C)[C@H](C(=O)O)CC(=O)[C@H](CC(C)C)NC(=O)[C@@H](C)NC(=O)CN(C2CCCCC2)C(=O)CC[C@H](C(=O)O)NC(=O)[C@H]1C 1.5 nM

---

# protocol-summary: Inhibition of microcystin analogues to catalytic subunits of Serine/threonine protein phosphatase 2A (PP2Ac)
Numbered stars: 1 amine (or outer) side, 2 acyl side, 3 side chain; on linkers, the order of the positions; unused ones are H or OH. Bridge positions count the residues as written; N and C are the ends. Square brackets hold non-standard residues; d marks the D form. Peptide text beside a SMILES is read from it. Adda = CO[C@@H](Cc1ccccc1)[C@@H](C)/C=C(C)/C=C/[C@H](N[*:1])[C@H](C)C(=O)[*:2]; X1 = CC(C)C[C@H](N[*:1])C(=O)C[C@@H](C(=O)O)[C@H](C)C(=O)[*:2]; NMeDha = C=C(NC)C(=O)O
readout-label: IC50 (nM)
Your answer should be a plain number; it is taken to be in nM.

| molecule | IC50 (nM) |
| --- | --- |
| C=C1C(=O)N[C@H](C)C(=O)N[C@@H](CC(C)C)C(=O)C[C@@H](C(=O)O)[C@H](C)C(=O)N[C@@H](C)C(=O)N[C@@H](/C=C/C(C)=C/[C@H](C)[C@H](Cc2ccccc2)OC)[C@H](C)C(=O)N[C@@H](C(=O)O)CCC(=O)N1C ([NMeDha][dA][X1]A[Adda][dE]-OH; lactam N-6) | 0.3 |

Would you kindly share the measured IC50 for C=C1C(=O)N[C@H](C)C(=O)N[C@@H](CC2CCCCC2)C(=O)C[C@@H](C(=O)O)[C@H](C)C(=O)N[C@@H](C)C(=O)N[C@@H](/C=C/C(C)=C/[C@H](C)[C@H](Cc2ccccc2)OC)[C@H](C)C(=O)N[C@@H](C(=O)O)CCC(=O)N1C ? 3.4

Ref: BindingDB's records for doi:10.1021/jm010066k
